Target: human GluN1^FA,TL/GluN3A receptors (Homo sapiens)
Construct: Human GluN3A (NP_597702.2) and rat GluN3B (NP_579842.2) were synthesized and subcloned into SP6 plasmids; expressed in transfected cells; host or cells: Xenopus laevis oocytes, cRNA injection (GluN1:GluN3 1:3)
Sequence (Q8TCU5 24-1115, other chains not shown): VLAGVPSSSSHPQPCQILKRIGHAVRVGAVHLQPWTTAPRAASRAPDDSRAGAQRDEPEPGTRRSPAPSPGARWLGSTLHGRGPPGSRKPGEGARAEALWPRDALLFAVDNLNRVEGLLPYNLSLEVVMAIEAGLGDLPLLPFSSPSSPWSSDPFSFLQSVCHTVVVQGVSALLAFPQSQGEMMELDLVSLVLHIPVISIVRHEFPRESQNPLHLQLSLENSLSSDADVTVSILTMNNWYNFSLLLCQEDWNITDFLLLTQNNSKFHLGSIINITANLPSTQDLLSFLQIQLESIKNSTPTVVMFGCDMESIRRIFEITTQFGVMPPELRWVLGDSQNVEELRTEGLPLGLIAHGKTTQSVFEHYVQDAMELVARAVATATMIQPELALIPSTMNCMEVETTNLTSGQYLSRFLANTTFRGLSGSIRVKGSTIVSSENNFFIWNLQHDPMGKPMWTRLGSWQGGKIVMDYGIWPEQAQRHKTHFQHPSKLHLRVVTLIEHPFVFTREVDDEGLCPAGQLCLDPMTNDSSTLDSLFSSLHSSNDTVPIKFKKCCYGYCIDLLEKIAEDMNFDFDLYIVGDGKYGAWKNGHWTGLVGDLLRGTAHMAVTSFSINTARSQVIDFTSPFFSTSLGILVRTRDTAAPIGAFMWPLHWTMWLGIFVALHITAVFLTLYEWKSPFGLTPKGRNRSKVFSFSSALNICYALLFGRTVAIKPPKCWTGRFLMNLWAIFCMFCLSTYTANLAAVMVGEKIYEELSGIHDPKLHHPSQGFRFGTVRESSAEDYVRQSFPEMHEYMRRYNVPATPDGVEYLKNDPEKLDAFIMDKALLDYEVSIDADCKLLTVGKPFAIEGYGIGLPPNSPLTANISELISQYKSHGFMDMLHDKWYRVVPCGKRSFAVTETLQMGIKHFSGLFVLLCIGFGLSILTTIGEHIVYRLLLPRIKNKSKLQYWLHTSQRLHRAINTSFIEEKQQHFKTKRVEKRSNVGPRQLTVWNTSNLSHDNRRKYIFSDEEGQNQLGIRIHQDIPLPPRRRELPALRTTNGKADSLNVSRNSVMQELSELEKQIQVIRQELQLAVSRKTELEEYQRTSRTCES
Test: Two-electrode voltage-clamp recordings of GluN1^FA,TL/GluN3A receptors in Xenopus oocytes
Assay type: cell-based
Details: pH 6.8; holding potential −40 mV; read-out: EC50, (95% CI) GluN1^FATL/GluN3A
reported-metric: IC50 (µM)
Give the quantity in µM, number only.

Ask: Please indicate IC50 recorded for COc1ccc(OCC(c2ccc(OC)cc2)N2Cc3ccccc3C2=O)cc1 (racemic)
Reply: 4.2
